Tested on: SF-268 CNS
ASSAY DETAILS: NCI tumour cell line growth inhibition, 48 h; in the data active = GI50 below about 0.43 µM; inactive = the rest
Return exactly one item of 1 (active), 0 (inactive)

Query: In this assay, the call recorded for `O=C(Nn1c2c(sc1=NC1CC1)C(=O)c1ccccc1C2=O)c1cc2ccc1CCc1ccc(cc1)CC2` was what?
Reply: 0

Query: In this assay, the call recorded for `CCN1CCN(c2cc(C)nc(NCc3cc(Nc4ccnc5cc(Cl)ccc45)ccc3F)n2)CC1` was what?
Reply: 0

Query: In this assay, the call recorded for C[C@@H]1CCC2[C@@H](C)[C@H](OC(=O)CCC(=O)NCCNC(=O)Cc3cc(=O)oc4cc(N(C)C)ccc34)O[C@@H]3O[C@]4(C)CC[C@@H]1C23OO4 (stereo partly drawn) was what?
Reply: 0

Query: In this assay, the call recorded for `NCCCn1c2c(c3ccc([N+](=O)[O-])cc3c1=O)C(=O)c1cc(Cl)ccc1-2` was what?
Reply: 1

Query: In this assay, the call recorded for `O=c1cc(-c2ccc[nH]2)[nH]c2cc3c(cc12)OCO3` was what?
Reply: 0

Query: In this assay, the call recorded for `CCN1CCN(c2nc(C)cc(N(CCCNc3ccnc4cc(Cl)ccc34)Cc3ccco3)n2)CC1` was what?
Reply: 0

Query: In this assay, the call recorded for `COc1ccc(Cn2cc3c(c2-c2ccccc2)CCc2cncnc2-3)cc1` was what?
Reply: 0

Query: In this assay, the call recorded for `O=C(/C=C\c1ccc(OCCCCCC[P+](c2ccccc2)(c2ccccc2)c2ccccc2)cc1)c1ccc2c(c1)OCCO2` was what?
Reply: 0
